Data origin: patent US12263171B2

Biological target: human A2a adenosine receptor (Homo sapiens (Human))
Sequence (P29274 whole entry): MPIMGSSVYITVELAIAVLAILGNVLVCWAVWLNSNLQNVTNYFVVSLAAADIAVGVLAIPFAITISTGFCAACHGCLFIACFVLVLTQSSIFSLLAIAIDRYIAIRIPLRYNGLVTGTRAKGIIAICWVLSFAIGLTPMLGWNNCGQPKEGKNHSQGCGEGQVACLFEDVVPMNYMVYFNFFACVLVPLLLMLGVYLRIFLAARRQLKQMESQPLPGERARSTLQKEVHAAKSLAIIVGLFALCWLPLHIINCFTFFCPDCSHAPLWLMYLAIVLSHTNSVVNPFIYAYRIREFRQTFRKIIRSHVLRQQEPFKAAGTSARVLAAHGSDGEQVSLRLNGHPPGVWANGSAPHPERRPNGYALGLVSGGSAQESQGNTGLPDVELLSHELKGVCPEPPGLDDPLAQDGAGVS
Experiment: A2a receptor affinity radioligand binding assay ([3H] SCH58261, membranes from HEK293 or CHO cells)
Conditions: unstarred values: radioligand binding
QUANTITY: IC50 (pM)
Give the number; pM is assumed, so skip it.

Any idea what its IC50 is? The molecule is COc1cccc2c1nc(N)n1nc([C@@H]3CCCN(c4cnn(C(C)C(C)(C)O)c4)C3)nc21 (single isomer, unassigned) [Example 61A]
200

Next:
Any idea what its IC50 is? The molecule is COc1cccc2c1nc(N)n1nc([C@@H]3CCCN(c4nccn4C)C3)nc21 [Example 81]
1400

Any idea what its IC50 is? The molecule is COc1ccc2c(c1)nc(N)n1nc([C@@H]3CCCN(c4cnn([C@H]5CCC[C@@H]5O)c4)C3)nc21 [Example 187B]
406000

Any idea what its IC50 is? The molecule is COc1cccc2c1nc(N)n1nc([C@@H]3CCCN(c4cn(C)nc4C(F)(F)F)C3)nc21 [Example 51]
100
